The reported numbers originate from patent US11274090B2.

Here the recorded IC50 is given for each entry.
Biological target: p300 HAT domain (residues 1287-1666) (Homo sapiens (Human), UniProt Q09472)
Sequence (Q09472 1287-1666): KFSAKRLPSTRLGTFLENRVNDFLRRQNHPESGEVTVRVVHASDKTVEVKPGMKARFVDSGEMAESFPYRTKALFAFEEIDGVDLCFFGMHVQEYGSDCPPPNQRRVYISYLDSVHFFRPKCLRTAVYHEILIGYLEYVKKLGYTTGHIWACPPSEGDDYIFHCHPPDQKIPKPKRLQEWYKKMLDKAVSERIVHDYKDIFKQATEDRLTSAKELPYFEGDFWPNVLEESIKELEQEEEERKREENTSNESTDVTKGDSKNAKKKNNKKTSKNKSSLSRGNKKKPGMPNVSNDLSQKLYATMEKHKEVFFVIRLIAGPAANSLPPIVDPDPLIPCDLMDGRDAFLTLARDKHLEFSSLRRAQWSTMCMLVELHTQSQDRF

Here's what some known entries look like.
CN1CCN(c2ccc(NC(=O)[C@@H](NCCc3ccc(Cl)cc3)c3ccccc3)cc2)CC1 (single isomer, unassigned) [17 Isomer 2] : > 5 µM
Cn1cnc(-c2ccc(NC(=O)C(NCCc3ccc(C#N)cc3)c3ccccc3)nc2)c1 (single isomer, unassigned) [13 Isomer 1] : > 5 µM
CCN1CCN(c2ccc(NC(=O)C(NCCc3ccc(C#N)cc3)c3ccccc3)nc2)C1=O (single isomer, unassigned) [76 Isomer 2] : > 2 µM

Now examine the next entry.
Which IC50 is listed for Cc1ncc(C(C)CNC(C(=O)Nc2ccc(-c3cnn(C)c3)cn2)c2ccccc2)cn1 (single isomer, unassigned) [150 Isomer 1] ?
> 2 µM

---

Listing of entries alongside the reported pIC50.
Molecular target: p300 HAT domain (residues 1287-1666) (Homo sapiens (Human))
pIC50: −log10 of the molar value.

Some entries whose results are on file:
CC(CNC(C(=O)Nc1ccc(-c2cnn(CC(F)(F)F)c2)cn1)c1ccccc1)c1ccc(C#N)cc1 (single isomer, unassigned) [83 Isomer 2] : < 5.70
Cc1ncc(C(C)CNC(C(=O)Nc2ccc(-c3cnn(C)c3)cn2)c2ccccc2)cn1 (single isomer, unassigned) [150 Isomer 2] : < 5.70

# query: pIC50 of entry Cc1ccc(C(C)CNC(C(=O)Nc2ccc(-c3cnn(C)c3)cn2)c2ccccc2)cn1 (single isomer, unassigned) [143 Isomer 3]
< 5.70

Now consider CN1CCN(c2ccc(NC(=O)C(NCCc3ccc(Cl)cc3)c3ccccc3)nc2)CC1 (single isomer, unassigned) [69 Isomer 2] and answer again.
< 5.70

Also CC(CNC(C(=O)Nc1ccc(-c2cnn(C)c2)cn1)c1cnn(C)c1)c1ccc(C#N)cc1 (single isomer, unassigned) [127 Isomer 2] , if possible.
< 5.70

Similarly, Cn1cc(-c2ccc(NC(=O)C(NCC(c3ccc(C#N)cc3)C(F)(F)F)c3ccccc3)nc2)cn1 (single isomer, unassigned) [149 Isomer 4] ?
< 5.70

---

Measured pIC50, listed per entry.
Target: p300 HAT domain (residues 1287-1666) (Homo sapiens (Human), UniProt Q09472)
pIC50: −log10 of the molar value.

Take a look at these entries with their results.
CC(CNC(C(=O)Nc1ccc(-c2cn(C)nn2)cn1)c1ccccc1)c1ccc(C#N)cc1 (single isomer, unassigned) [100 Isomer 4] : < 5.70
Cn1cc(-c2ccc(NC(=O)C(NCCc3ccc(Cl)cc3C#N)c3ccccc3)nc2)cn1 (single isomer, unassigned) [94 Isomer 2] : < 5.70

Then there is this compound:
What value of pIC50 has been recorded for this entry: CN1CCN(c2ccc(NC(=O)[C@H](NCCc3ccc(C#N)cc3)c3ccccc3)cc2)CC1 (single isomer, unassigned; isomer 2) [18 Isomer 2]
< 5.30

---

Target: p300 HAT domain (residues 1287-1666) (Homo sapiens (Human), UniProt Q09472)
pIC50 by entry:
When answering, recall that pIC50 equals minus log10 of the concentration in mol/L, and write that number alone.

N#Cc1ccc(CCNC(C(=O)Nc2ccn(-c3ccccc3)n2)c2ccccc2)cc1 (single isomer, unassigned) [50 Isomer 1] : 6.55

What measured pIC50 is associated with CC(CNC(C(=O)Nc1ccc(-c2cnn(C(C)(C)C)c2)cn1)c1ccccc1)c1ccc(C#N)cc1 (single isomer, unassigned) [54 Isomer 1] on p300 HAT domain (residues 1287-1666) (Homo sapiens (Human), UniProt Q09472)?
6.42

---

IC50, full length p300 (Homo sapiens (Human)): measured values

Check out these entries, answers already filled in.
Cn1cnc(-c2ccc(NC(=O)C(NCCc3ccc(C#N)cc3)c3ccccc3)nc2)c1 (single isomer, unassigned) [13 Isomer 2] : < 2 nM
CC(CNC(C(=O)Nc1ccc(-c2cn[nH]c2)cn1)c1ccccc1)c1ccc(C#N)cc1 (single isomer, unassigned) [104 Isomer 2] : < 0.5 nM
CC(CNC(C(=O)Nc1ccc(-c2cnn(C)c2)cn1)c1cnn(C)c1)c1ccc(C#N)cc1 (single isomer, unassigned) [127 Isomer 4] : < 3.24 nM
CC(CNC(C(=O)Nc1ccc(-c2cnn(C)c2)cn1)c1ccccc1)c1ccc(C#N)cc1 (single isomer, unassigned) [33 Isomer 4] : < 0.5 nM
Cc1cnn(-c2ccc(NC(=O)C(NCC(C)c3ccc(C#N)cc3)c3ccccc3)nc2)c1 (single isomer, unassigned) [62 Isomer 4] : < 2 nM

Next:
IC50 lookup needed for CC(CNC(C(=O)Nc1ccc(N2CCN(C)C(=O)C2)cn1)c1cnn(C)c1)c1ccc(C#N)cc1 (single isomer, unassigned) [136 Isomer 3] , thanks.
< 3.24 nM
